Data provenance is patent US20230312646A1.

Target: Escherichia coli SC (^EcSC) (Escherichia coli, UniProt P0A988)
Construct: His tag (inferred from the pET15b vector and Ni-NTA purification) (N); made in house; host or cells: E. coli
Sequence (P0A988 whole entry): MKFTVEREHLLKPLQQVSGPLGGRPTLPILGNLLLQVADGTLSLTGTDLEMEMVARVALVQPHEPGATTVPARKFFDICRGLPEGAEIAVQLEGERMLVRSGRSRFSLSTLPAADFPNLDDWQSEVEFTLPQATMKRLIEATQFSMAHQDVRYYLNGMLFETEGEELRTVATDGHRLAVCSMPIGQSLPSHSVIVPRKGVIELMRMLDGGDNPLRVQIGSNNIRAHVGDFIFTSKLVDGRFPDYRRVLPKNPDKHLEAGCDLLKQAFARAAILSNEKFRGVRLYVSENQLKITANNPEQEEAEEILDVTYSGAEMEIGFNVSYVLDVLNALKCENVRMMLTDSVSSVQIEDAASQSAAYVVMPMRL
Assay: biochemical
Type: binding
Conditions: Kd (nM), ITC at 298.15 K (25° C.)
Numbered stars: 1 amine (or outer) side, 2 acyl side, 3 side chain; on linkers, the order of the positions; unused ones are H or OH. Square brackets hold non-standard residues; d marks the D form. Peptide text beside a SMILES is read from it. * marks the point of attachment. Phe(3,4-Cl2) = N[C@@H](Cc1ccc(Cl)c(Cl)c1)C(=O)O; Phe(3,4-F2) = N[C@@H](Cc1ccc(F)c(F)c1)C(=O)O; Oic = O=C(O)[C@@H]1C[C@@H]2CCCC[C@@H]2N1; Cinnamoyl(4-F) = O=C(/C=C/c1ccc(F)cc1)*; X5 = O=C([C@@H]1CC(O)CN1[*:1])[*:2]; NH(4-MeO-phenyl) = COc1ccc(N*)cc1; Cha = N[C@@H](CC1CCCCC1)C(=O)O; NMeD = CN[C@@H](CC(=O)O)C(=O)O; CO = O=C([*:1])[*:2]
Each record here notes measured Kd.
Quick reminder: number only, in nM, skip the unit.

MOLECULE	TARGET_OF_ASSAY	Kd [nM]
CC(=O)N[C@@H](CCC(N)=O)C(=O)N[C@@H](CC1CCCCC1)C(=O)N(C)[C@@H](CC(=O)O)C(=O)N[C@@H](CC(C)C)C(=O)N1CCC[C@H]1C(=O)N[C@@H](CC(C)C)C(=O)O [P42] (Ac-Q[Cha][NMeD]LPL-OH)	Escherichia coli SC (^EcSC) (Escherichia coli, UniProt P0A988)	263
CC(=O)N[C@@H](CCC(N)=O)C(=O)N[C@@H](CC1CCCCC1)C(=O)N[C@@H](CC(=O)O)C(=O)N[C@@H](CC(C)C)C(=O)NCC(=O)N[C@@H](Cc1ccccc1)C(=O)O [P29] (Ac-Q[Cha]DLGF-OH)	Escherichia coli SC (^EcSC) (Escherichia coli, UniProt P0A988)	313
COc1ccc(NC(=O)N[C@@H](CCC(N)=O)C(=O)N[C@@H](CC2CCCCC2)C(=O)N(C)[C@@H](CC(=O)O)C(=O)N[C@@H](CC(C)C)C(=O)N[C@@H](Cc2ccc(Cl)c(Cl)c2)C(=O)O)cc1 [P39] ({NH(4-MeO-phenyl)-CO}-Q[Cha][NMeD]L[Phe(3,4-Cl2)]-OH)	Escherichia coli SC (^EcSC) (Escherichia coli, UniProt P0A988)	266
CC(=O)N[C@@H](CCC(N)=O)C(=O)N[C@@H](CC1CCCCC1)C(=O)N[C@@H](CC(=O)O)C(=O)N[C@@H](CC(C)C)C(=O)N1[C@H](C(=O)N[C@@H](Cc2ccccc2)C(=O)O)C[C@@H]2CCCC[C@@H]21 [P48] (Ac-Q[Cha]DL[Oic]F-OH)	Escherichia coli SC (^EcSC) (Escherichia coli, UniProt P0A988)	120
CC(=O)N[C@@H](CCC(N)=O)C(=O)N[C@@H](CC1CCCCC1)C(=O)N(C)[C@@H](CC(=O)O)C(=O)N[C@@H](CC(C)C)C(=O)N[C@@H](Cc1ccc(Cl)c(Cl)c1)C(=O)O [P35] (Ac-Q[Cha][NMeD]L[Phe(3,4-Cl2)]-OH)	Escherichia coli SC (^EcSC) (Escherichia coli, UniProt P0A988)	41

Endpoint output: Kd of CC(C)C[C@H](NC(=O)[C@H](CC(=O)O)NC(=O)[C@H](CC1CCCCC1)NC(=O)[C@H](CCC(N)=O)NC(=O)/C=C/c1ccc(F)cc1)C(=O)N[C@@H](Cc1ccccc1)C(=O)O [P18] ({Cinnamoyl(4-F)}-Q[Cha]DLF-OH) . Value?
144

Repeat with CC(C)C[C@H](NC(=O)[C@H](CC(=O)O)N(C)C(=O)[C@H](CC1CCCCC1)NC(=O)[C@H](CCC(N)=O)NC(=O)/C=C/c1ccc(F)cc1)C(=O)N[C@@H](Cc1ccc(F)c(F)c1)C(=O)O [P41] ({Cinnamoyl(4-F)}-Q[Cha][NMeD]L[Phe(3,4-F2)]-OH)
99

Repeat with CC(=O)N[C@@H](CCC(N)=O)C(=O)N[C@@H](CC1CCCCC1)C(=O)N[C@@H](CC(=O)O)C(=O)N[C@@H](CC(C)C)C(=O)N1CC(O)C[C@H]1C(=O)N[C@@H](CC(C)C)C(=O)O (stereo partly drawn) [P33] (Ac-Q[Cha]DL[X5]L-OH)
369
